- System: Plasma
- EXPERIMENTAL DETAILS: Fraction unbound in human plasma by LC-MS/MS analysis
- Format: ADME, cell-free
METRIC: Cp(f) (%)
The reply should be a number in %, with the unit left off.

C[C@@H](NC(=O)[C@H]1CCCN1)c1ccc(Nc2ncc3cc(-c4ccncc4)ccc3n2)cc1 :: 1.4
COCCC(=O)N[C@H](C)c1ccc(Nc2ncc3cc(-c4ccncc4)ccc3n2)cc1 :: 1.5
C[C@@H](NC(=O)[C@H]1CCCCN1CCO)c1ccc(Nc2ncc3cc(-c4ccncc4)ccc3n2)cc1 :: 3.4

Could you now look at the following compound, please?
Qu. Please give the measured Cp(f) for this compound: `CC(=O)N[C@H](C)c1ccc(Nc2ncc3cc(-c4ccncc4)ccc3n2)cc1`
Ans. 6

----------
- Test system: Plasma
- EXPERIMENTAL DETAILS: Fraction unbound in human plasma by LC-MS/MS analysis
- Type: ADME, cell-free
Parameter threshold = 4%. Response is YES when Cp(f) meets or exceeds it, else NO.

Past entries and their recorded results:
C[C@@H](NC1=CC(=O)CNC1)c1ccc(Nc2ncc3cc(-c4ccncc4)ccc3n2)cc1 :: NO
COCCNC(C)c1ccc(Nc2ncc3cc(-c4ccncc4)ccc3n2)cc1 (stereo not given) :: YES
C[C@@H](NC1=CC(=O)NCC1)c1ccc(Nc2ncc3cc(-c4ccncc4)ccc3n2)cc1 :: NO
C[C@@H](NC(=O)C1CCNCC1)c1ccc(Nc2ncc3cc(-c4ccncc4)ccc3n2)cc1 :: NO

Continue with the compound presented below.
Qu. Does CC(=O)NC(C)c1ccc(Nc2ncc3cc(-c4ccncc4)ccc3n2)cc1 (stereo not given) have a reported Cp(f) of at least 4%?
Ans. YES
